Source of measurements: patent US10745382B2

- Measured Target: PD-1/PD-L1 (Homo sapiens)
- Construct: made in house; host or cells: HEK293T
- Assay Explanation: PD-1/PD-L1 Homogenous Time-Resolved Fluorescence (HTRF) binding assay
- Run Parameters: PD-L1-His 10 nM, PD-1-Ig 20 nM; value given as range class; read-out: Range or IC50
Endpoint Label: IC50

Below: 2 compounds and their reported IC50.
* Cc1c(COc2cc(OCc3cncc(C#N)c3)c(CN3CCCC[C@H]3C(=O)O)cc2Cl)cccc1-c1cccc(OCCCN2CCC[C@@H](C(=O)O)C2)c1C | 0.21 to 10 nM
* Cc1c(COc2cc(OCc3cncc(C#N)c3)c(CNC[C@H](O)CO)cc2Cl)cccc1-c1cccc(OCCCN2CC(N(C)C)C2)c1Cl | 0.21 to 10 nM

Field: next compound
Item CC(CO)(CO)NCc1cc(Cl)c(OCc2cccc(-c3cccc(OCCCN4CC[C@@H](O)C4)c3Cl)c2Cl)cc1OCc1cccc(C#N)c1 has what recorded IC50?
0.21 to 10 nM

----------
- Measured Target: PD-1/PD-L1 (Homo sapiens, UniProt Q9NZQ7)
- Construct: made in house; host or cells: HEK293T
- Sequence (Q9NZQ7 with tags, fused parts or gaps): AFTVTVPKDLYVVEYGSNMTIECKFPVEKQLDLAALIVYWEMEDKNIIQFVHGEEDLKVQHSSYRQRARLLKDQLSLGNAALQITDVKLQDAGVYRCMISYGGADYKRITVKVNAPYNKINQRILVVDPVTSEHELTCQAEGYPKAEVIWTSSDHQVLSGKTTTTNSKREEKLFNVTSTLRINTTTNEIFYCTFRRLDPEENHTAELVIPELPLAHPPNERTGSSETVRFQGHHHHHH
- Assay Explanation: PD-1/PD-L1 Homogenous Time-Resolved Fluorescence (HTRF) binding assay
- Run Parameters: PD-L1-His 10 nM, PD-1-Ig 20 nM; value given as range class; read-out: Range or IC50
Endpoint Label: IC50

Below: 2 compounds and their reported IC50.
• Cc1c(COc2cc(OCc3cncc(C#N)c3)c(CN[C@H](CO)C(=O)O)cc2Cl)cccc1-c1cccc(OCCC(=O)N2CC[C@@H](O)C2)c1 [Example 1009] = 0.21 to 10 nM
• Cc1c(COc2cc(OCc3cncc(C#N)c3)c(CN(C)C(CO)CO)cc2Cl)cccc1-c1cccc(OCCCN2CCC(F)(F)C2)c1C [Example 4120] = 0.21 to 10 nM

Field: next compound
State its IC50 on PD-1/PD-L1 (Homo sapiens, UniProt Q9NZQ7): Cc1c(COc2cc(OCc3cncc(C#N)c3)c(CN3CCCC[C@H]3C(=O)O)cc2Cl)cccc1-c1ccc2c(c1)OC(CCN1CC[C@@H](O)C1)CO2 (single isomer, unassigned) [Example 1505]
0.21 to 10 nM

----------
- Measured Target: PD-1/PD-L1 (Homo sapiens, UniProt Q9NZQ7)
- Construct: made in house; host or cells: HEK293T
- Assay Explanation: PD-1/PD-L1 Homogenous Time-Resolved Fluorescence (HTRF) binding assay
- Run Parameters: PD-L1-His 10 nM, PD-1-Ig 20 nM; value given as range class; read-out: Range or IC50
pIC50: −log10 of the molar value.
Listed next: entries and their corresponding pIC50.

Below: 8 compounds and their reported pIC50.
- Cc1c(COc2cc(OCc3cncc(C#N)c3)c(CN[C@H](CO)C(=O)O)cc2Cl)cccc1-c1cccc(OCCCN2CC(O)C2)c1C: 8.00 to 9.68
- Cc1c(COc2cc(OCc3cncc(S(C)(=O)=O)c3)c(CN[C@@](C)(CO)C(=O)O)cc2Cl)cccc1-c1cccc(OCCCN2CCC(O)(C(=O)O)CC2)c1C: 8.00 to 9.68
- Cc1c(COc2cc(OCc3cncc(C#N)c3)c(CN[C@](C)(CO)C(=O)O)cc2Cl)cccc1-c1cccc(OCCCN(C)C[C@H](O)CO)c1Cl: 8.00 to 9.68
- COc1cc(OCc2cccc(-c3cccc(OCCCN4CC[C@@H](O)C4)c3C)c2C)c(Cl)cc1CN[C@@H](CO)C(=O)O: 8.00 to 9.68
- CC(=O)NCCNCc1cc(Cl)c(OCc2cccc(-c3cccc(OCCCN4CC[C@@H](O)C4)c3)c2C)cc1OCc1cncc(C#N)c1: 8.00 to 9.68
- COc1c(COc2cc(OCc3cncc(C#N)c3)c(CN[C@](C)(CO)C(=O)O)cc2Cl)cccc1-c1cccc(OCCCN2CC[C@@H](O)C2)c1C: 8.00 to 9.68
- Cc1c(COc2cc(OCc3cncc(C#N)c3)c(CN[C@@](C)(CO)C(=O)O)cc2Cl)cccc1-c1cccc(O[C@H](C)CCN2CC[C@@H](O)C2)c1Cl: 8.00 to 9.68
- Cc1c(OCCCN2CC[C@@H](O)C2)cccc1-c1cccc(COc2cc(OCc3cncc(C#N)c3)c(CN[C@](C)(CO)C(=O)O)cc2Cl)c1Cl: 8.00 to 9.68

Field: next compound
Item Cc1c(CCCCN2CC[C@@H](O)C2)cccc1-c1cccc(COc2cc(OCc3cncc(C#N)c3)c(CN3CCNC[C@H]3C(=O)O)cc2Cl)c1C has what recorded pIC50?
8.00 to 9.68

----------
- Measured Target: PD-1/PD-L1 (Homo sapiens, UniProt Q9NZQ7)
- Construct: made in house; host or cells: HEK293T
- Assay Explanation: PD-1/PD-L1 Homogenous Time-Resolved Fluorescence (HTRF) binding assay
- Run Parameters: PD-L1-His 10 nM, PD-1-Ig 20 nM; value given as range class; read-out: Range or IC50
Endpoint Label: IC50

* COc1cc(NC(=O)c2cccc(-c3cccc(OCCCN4CC[C@@H](O)C4)c3C)c2C)c(Cl)cc1C(=O)N1CCCC[C@H]1C(=O)O [Example 4519] | 100 to 2000 nM
* Cc1c(COc2cc(OCc3cncc(C(N)=O)c3)c(CN3CCCC[C@H]3C(=O)O)cc2Cl)cccc1-c1cccc(OCCCN2CCC(CO)(C(=O)O)CC2)c1Cl [Example 1114] | 0.21 to 10 nM
* Cc1c(COc2cc(OCCCN3CC[C@@H](O)C3)c(CN[C@](C)(CO)C(=O)O)cc2Cl)cccc1-c1cccc(OCCCN2CC[C@@H](O)C2)c1C [Example 1531] | 0.21 to 10 nM
* CCNC(=O)c1cccc(-c2cccc(COc3cc(OCc4cncc(C#N)c4)c(CNC(CO)CO)cc3Cl)c2C)c1C [Example 4009] | 10 to 100 nM
* Cc1c(COc2cc(OCc3cncc(C#N)c3)c(CN(C)[C@@](C)(CO)C(=O)O)cc2Cl)cccc1-c1cccc(OCCCN2CC[C@@H](O)C2)c1C [Example 4108] | 0.21 to 10 nM
* Cc1c(COc2cc(OCc3cncc(C#N)c3)c(CN(C)CCC(N)=O)cc2Cl)cccc1-c1cccc(OCCCN(C)CCC(N)=O)c1C [Example 2266] | 0.21 to 10 nM
* Cc1c(COc2cc(OCc3cncc(C#N)c3)c(CNC(C)(CO)CO)cc2Cl)cccc1-c1cccc(OCCCN2CCC[C@@H](CO)C2)c1C [Example 2289] | 0.21 to 10 nM
* Cc1c(COCCN2CC[C@@H](O)C2)cccc1-c1cccc(COc2cc(OCc3cncc(C#N)c3)c(CN[C@@](C)(CO)C(=O)O)cc2Cl)c1C [Example 4123] | 0.21 to 10 nM
* Cc1c(COc2cc(OCc3cncc(C#N)c3)c(CN3CCCC[C@H]3C(=O)O)cc2Cl)cccc1-c1cccc(OCCCN2CCCC[C@H]2C(=O)O)c1C [Example 2268] | 0.21 to 10 nM
* Cc1c(COc2cc(OCc3cncc(C#N)c3)c(CN(CC3CC3)C(C)(CO)CO)cc2Cl)cccc1-c1cccc(OCCCN2CC[C@@H](O)C2)c1Cl [Example 2114] | 0.21 to 10 nM

Item Cc1c(COc2cc(OCc3cncc(C#N)c3)c(CN[C@H](CO)C(=O)O)cc2Cl)cccc1-c1cccc(OC[C@@H]2CCCN3CCCC[C@H]23)c1C [Example 1042] has what recorded IC50?
0.21 to 10 nM

How about this molecule: COc1cc(OCc2cccc(-c3cccc(OCCCN4CC[C@@H](O)C4)c3C)c2C)c(Cl)cc1C=O [Example 3032]
100 to 2000 nM

----------
- Measured Target: PD-1/PD-L1 (Homo sapiens, UniProt Q9NZQ7)
- Construct: made in house; host or cells: HEK293T
- Assay Explanation: PD-1/PD-L1 Homogenous Time-Resolved Fluorescence (HTRF) binding assay
- Run Parameters: PD-L1-His 10 nM, PD-1-Ig 20 nM; value given as range class; read-out: Range or IC50
pIC50: −log10 of the molar value.
Endpoint Label: pIC50

• Cc1c(COc2cc(OCc3cncc(C#N)c3)c(C(=O)NCCO)cc2Cl)cccc1-c1cccc(OCCCN2CC[C@@H](O)C2)c1C = 8.00 to 9.68
• Cc1c(COc2cc(OCc3cncc(S(C)(=O)=O)c3)c(CN3CCCC[C@H]3C(=O)O)cc2Cl)cccc1-c1cccc(OCCCN2CCC(O)(CC(=O)O)C2)c1C (mixture of isomers) = 8.00 to 9.68
• Cc1c(COc2cc(OCc3cncc(C#N)c3)c(CNC(C)(CO)C(=O)O)cc2Cl)cccc1-c1cccc(OCc2cncc(C#N)c2)c1 (racemic) = 8.00 to 9.68

Item CC(=O)N[C@@H]1CCN(CCCOc2cccc(-c3cccc(COc4cc(OCc5cncc(C#N)c5)c(CN[C@](C)(CO)C(=O)O)cc4Cl)c3C)c2Cl)C1 has what recorded pIC50?
8.00 to 9.68

How about this compound: Cc1c(COc2cc(OCc3cncc(C#N)c3)c(CN3CCCC[C@H]3C(=O)O)cc2Cl)cccc1-c1cccc(OCCCNCCc2ccncc2)c1C
8.00 to 9.68

How about this compound: Cc1c(COc2cc(OCc3cncc(C#N)c3)c(CN[C@@](C)(CO)C(=O)O)c(C)c2Cl)cccc1-c1cccc(OCCCN2CC[C@@H](O)C2)c1C
8.00 to 9.68

How about this compound: CCNC(=O)c1cccc(-c2cccc(COc3cc(OCc4cncc(C#N)c4)c(CN4CCC[C@H]4C(=O)O)cc3Cl)c2C)c1C
5.70 to 7.00

How about this compound: Cc1c(COc2cc(OCc3cncc(C(N)=O)c3)c(CN[C@@](C)(CO)C(=O)O)cc2Cl)cccc1-c1cccc(OCCCN2CCC(O)(CC(=O)O)C2)c1Cl (some centres unmarked)
7.00 to 8.00

How about this compound: Cc1c(COc2cc(OCc3cncc(C#N)c3)c(CN3CCCC[C@H]3C(=O)O)cc2Cl)cccc1-c1cccc(OCCCN2CC[C@H](F)C2)c1C
8.00 to 9.68

How about this compound: CCOC(=O)C1(CO)CCN(CCCOc2cccc(-c3cccc(COc4cc(OCc5cncc(C#N)c5)c(CN[C@](C)(CO)C(=O)O)cc4Cl)c3C)c2C)C1 (some centres unmarked)
8.00 to 9.68

How about this compound: Cc1c(COc2cc(OCc3cncc(C#N)c3)c(CN[C@](C)(CO)C(=O)O)cc2Cl)cccc1-c1cccc(OCCCN2CCC(CO)(C(=O)O)C2)c1C (some centres unmarked)
8.00 to 9.68
